// provenance: ChEMBL document CHEMBL5442219

- assayed.target: Sodium-dependent noradrenaline transporter (Homo sapiens) (UniProt P23975)
- Sequence (P23975 whole entry): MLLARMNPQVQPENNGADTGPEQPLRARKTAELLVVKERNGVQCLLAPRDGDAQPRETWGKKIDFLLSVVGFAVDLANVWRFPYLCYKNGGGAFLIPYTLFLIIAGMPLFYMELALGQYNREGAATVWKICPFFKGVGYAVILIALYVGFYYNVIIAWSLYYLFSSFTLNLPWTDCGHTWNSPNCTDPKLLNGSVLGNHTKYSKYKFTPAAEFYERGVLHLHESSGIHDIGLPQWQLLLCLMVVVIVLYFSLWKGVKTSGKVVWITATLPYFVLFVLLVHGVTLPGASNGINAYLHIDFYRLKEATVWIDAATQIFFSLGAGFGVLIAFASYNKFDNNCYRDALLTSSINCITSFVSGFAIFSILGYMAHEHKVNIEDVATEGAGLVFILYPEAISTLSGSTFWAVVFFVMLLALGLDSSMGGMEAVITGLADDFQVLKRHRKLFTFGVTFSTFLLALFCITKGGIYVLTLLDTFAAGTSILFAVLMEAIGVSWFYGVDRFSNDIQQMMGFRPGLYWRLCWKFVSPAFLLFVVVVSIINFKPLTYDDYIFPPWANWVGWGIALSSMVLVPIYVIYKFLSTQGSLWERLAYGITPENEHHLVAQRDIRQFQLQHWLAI
- conditions.used: Compound concentration 10 µM
- Description: PDSP Primary Binding target: SLC6A2 - Compounds are tested at 10 uM concentration, plate are incubated at room temperature in the dark for 90 minutes. Reaction are stopped by vacuum filtration onto 0.3% polyethyleneimine soaked filter mats using Filtermate harvester. Scintilation cocktail is then melted onto microwave-dried filters on a hot plate and the radio activity is counted in Microbia counter.
parameter: inhibition

Some entries whose results are on file:
* Cc1nnn(-c2ccc(-c3ccc(C4(C(=O)O)CC4)cc3)cc2)c1NC(=O)O[C@H](C)c1ccccc1 | 2.8%
* S=C(NCCCc1c[nH]cn1)NCCCN(Cc1ccc(Cl)c(Cl)c1)c1ccc(Br)cn1 | 94.1%

Asked: # input compound: Cc1nn(C)c(C)c1-c1cccc2c1CC[C@H](N(C)C)C2 ; wanted: its inhibition
Given back: -2.38%

Asked: Need inhibition, item Cc1ccc(O)c([C@H](CCN(C(C)C)C(C)C)c2ccccc2)c1
Given back: 29.7%

Asked: Requested read-out: inhibition. Entry: O=C(Cc1ccccc1)Nc1nc2ccc(Cl)cc2c2nc(-c3ccco3)nn12
Given back: -6.09%

---

- assayed.target: Kappa-type opioid receptor (Homo sapiens)
- conditions.used: Compound concentration 10 µM
- Description: PDSP Primary Binding target: OPRK1 - Compounds are tested at 10 uM concentration, plate are incubated at room temperature in the dark for 90 minutes. Reaction are stopped by vacuum filtration onto 0.3% polyethyleneimine soaked filter mats using Filtermate harvester. Scintilation cocktail is then melted onto microwave-dried filters on a hot plate and the radio activity is counted in Microbia counter.
parameter: inhibition (%)
Reply with just the number (in %).

Asked: Can you look up the measured inhibition of FC(F)(F)c1c(N2CCC(c3ccccc3)CC2)ccn2c(CC3CC3)nnc12 for me?
Given back: 10.5

Asked: What measured inhibition goes with CN1CCN(c2ccc(Nc3c4ccccc4nc4ccccc34)cc2)CC1 ?
Given back: 38.7

Asked: Looking for the measured inhibition of CCc1nn2c(C)cc(C)nc2c1Cc1ccc(-c2nnc(C3CCNCC3)o2)cc1 , can you help?
Given back: 4.27

Asked: Fill in the blank: the reported inhibition of CCCNS(=O)(=O)Nc1ncnc(OCCOc2ncc(Br)cn2)c1-c1ccc(Br)cc1 is ____.
Given back: 1.8

Asked: Item under review: CCCCN(CCCC)C(=O)CN1C[C@@H](c2ccc3c(c2)OCO3)[C@H](C(=O)O)[C@H]1c1ccc(OC)cc1 . Reported inhibition?
Given back: 27.6

Asked: Return reported inhibition; argument: CC(C)NCC(O)c1ccc(N)c(C#N)c1 (centres undefined)
Given back: 9.69

Asked: Reported inhibition, compound CCC(=O)NCC[C@@H]1CCc2ccc3c(c21)CCO3 : ____
Given back: 14.2

Asked: Name the recorded inhibition for CC1(C)SSC(C)(C)[C@@H](NC(=O)[C@@H](N)Cc2ccc(O)cc2)C(=O)NCC(=O)N[C@@H](Cc2ccccc2)C(=O)N[C@H]1C(=O)O .
Given back: -4.89

Asked: // returns reported inhibition for input N#Cc1c[nH]c2c(C(=O)N3CCN(CCc4ccc(F)cc4)CC3)cccc12
Given back: 7.51

---

- assayed.target: UniProtKB P41595
- Sequence (P41595 whole entry): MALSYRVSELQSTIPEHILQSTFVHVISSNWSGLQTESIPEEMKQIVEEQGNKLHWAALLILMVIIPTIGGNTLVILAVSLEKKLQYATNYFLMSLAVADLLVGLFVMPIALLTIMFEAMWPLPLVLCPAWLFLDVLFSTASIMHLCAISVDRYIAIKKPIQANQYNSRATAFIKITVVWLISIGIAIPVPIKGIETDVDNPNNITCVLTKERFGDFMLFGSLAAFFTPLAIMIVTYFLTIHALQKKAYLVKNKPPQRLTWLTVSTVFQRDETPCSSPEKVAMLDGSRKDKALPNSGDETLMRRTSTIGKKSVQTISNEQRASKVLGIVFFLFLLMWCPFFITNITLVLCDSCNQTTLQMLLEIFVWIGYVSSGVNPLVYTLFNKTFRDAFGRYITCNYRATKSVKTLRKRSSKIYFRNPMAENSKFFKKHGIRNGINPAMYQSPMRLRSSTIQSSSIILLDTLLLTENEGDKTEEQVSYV
- conditions.used: Compound concentration 10 µM; call rule not given here
Allowed answers: active, inactive

Before answering, review these 4 worked examples.
* FC(F)(F)c1c(N2CCC(c3ccccc3)CC2)ccn2c(CC3CC3)nnc12 | inactive
* Clc1cccc(COc2cncc(N3CCNCC3)n2)c1 | active
* CN(C(=O)Cc1ccc(Cl)c(Cl)c1)C(CN1CCCC1)c1cccc(OCC(=O)O)c1 (stereo not given) | inactive
* CCCSc1nc(N[C@@H]2C[C@H]2c2ccc(F)c(F)c2)c2nnn([C@@H]3C[C@H](OCCO)[C@@H](O)[C@H]3O)c2n1 | inactive

Asked: Tell me the assay call for CS(=O)(=O)NC[C@H]1CC[C@H](Nc2nc3c(s2)CCSc2ccccc2-3)CC1 please.
Given back: active

Asked: Test call, this compound: COC(=O)[C@H]1[C@H]2C[C@H]3c4[nH]c5ccccc5c4CCN3C[C@H]2CC[C@@H]1O
Given back: active
